Target: PltZ
Construct: full gene cloned in pET-28b-derived vector, E. coli BL21 (DE3), Ni-NTA purified (His tag implied)
Assay: isothermal titration calorimetry
Test Parameters: 25 °C; 20 mM Tris pH 8.0, 100 mM NaCl; independent binding model; read-out: binding constant
Reported Metric: Kd

In plain terms, CC(=O)c1c(O)cc(O)c(C(C)=O)c1O has a documented Kd of ~190 nM
